pIC50: −log10 of the molar value.
Literature roundup of UniProt:Q06418 data, read-out pIC50.

// worked examples, pIC50 included
C[C@@H](CCF)Nc1ncc2c(OC3CCOCC3)ncc([C@H]3CC[C@H](O)CC3)c2n1	≥ 7.00
CCC1(N2CCC[C@H]2C)CCc2ccc(-c3cnc4[nH]nc(-c5ccc(C(N)=O)c(Cl)c5)c4c3)cc2CC1 (stereo partly drawn)	> 7.00
COC[C@H](C)Nc1ncc2c(OC3CCOCC3)ncc([C@H]3CC[C@@](O)(C(F)(F)F)CC3)c2n1	6.00 to 7.00
COC(=O)N1CCC(c2cc(-c3ccc(NC(=O)c4cccn(-c5ccc(F)cc5)c4=O)cc3)c3c(N)ncnn23)CC1	7.00 to 8.00
CC[C@H](C)Nc1ncc2c(=O)n(CC34CCC(N)(CC3)CC4)cc([C@H]3CC[C@H](O)CC3)c2n1	≥ 7.00

// Input: CN1CC(Nc2ncc3c(OC4CCOCC4)ncc([C@H]4CC[C@H](O)CC4)c3n2)CC1=O (stereo partly drawn) . Output its pIC50 only.
6.00 to 7.00

// Input: COC[C@H](C)Nc1ncc2c(-c3ccnc(N4CC(C)(O)C4)c3)cc(C3CCC(O)CC3)n2n1 (stereo partly drawn) . Output its pIC50 only.
≥ 7.00

// Input: COC[C@H](C)Nc1ncc2c(-c3ccc(C4(C(=O)O)CC4)cc3)cc([C@H]3CC[C@H](O)CC3)n2n1 . Output its pIC50 only.
≥ 7.00

// Input: CCCC(C)Nc1ncc2c(OC3CCOCC3)ncc([C@H]3CC[C@H](N(C)C)CC3)c2n1 (stereo partly drawn) . Output its pIC50 only.
< 5.00

// Input: COCCS(=O)(=O)c1ccc(-c2n[nH]c3ncc(-c4ccc5c(c4)CCC(C)(N4CCC[C@H]4C)CC5)cc23)cc1 (stereo partly drawn) . Output its pIC50 only.
> 7.00

// Input: COc1cc2nccc(Oc3cnc(NC(=O)c4cn(CC5CCSCC5)cc(-c5ccc(C)cc5)c4=O)nc3)c2cc1OC . Output its pIC50 only.
6.99

====

Literature roundup of TYRO3 (Homo sapiens, UniProt Q06418) data, read-out IC50.

// worked examples, IC50 included
C[C@H](CC(F)(F)F)Nc1ncc2c(OC3CCOCC3)ncc([C@H]3CC[C@H](O)CC3)c2n1	100 to 1000 nM
COC[C@H](C)Nc1ncc2c(-c3cnn(C4COC4)c3)cc(C3CCOCC3)n2n1	≤ 100 nM

Report measured IC50 on TYRO3 (Homo sapiens, UniProt Q06418); entry: Cc1c(-c2cccnc2)c(=O)c(C(=O)Nc2ccc(-c3cc(C4CCN(C(=O)C(C)C)CC4)n4ncnc(N)c34)cc2)cn1C1CC1
> 100 nM

Report measured IC50 on TYRO3 (Homo sapiens, UniProt Q06418); entry: COC(=O)N1CCC(c2cc(-c3ccc(NC(=O)c4cccn(-c5ccccc5)c4=O)cc3F)c3c(N)ncnn23)CC1
10 to 100 nM

====

Literature roundup of TYRO3 (Homo sapiens, UniProt Q06418) data, read-out pIC50.
pIC50: −log10 of the molar value.

// worked examples, pIC50 included
O=C(O)[C@H]1CC[C@H](Nc2ncc3c(OC4CCOCC4)ncc([C@H]4CC[C@H](O)CC4)c3n2)CC1	6.00 to 7.00
CCCC(C)Nc1ncc2c(=O)n(C3CCN(CCC(=O)N(C)C)CC3)cc([C@H]3CC[C@H](O)CC3)c2n1 (some centres unmarked)	≥ 7.00
Nc1ncnn2c(C3CCOCC3)cc(-c3ccc(NC(=O)c4cccn(-c5ccccc5)c4=O)cc3)c12	< 7.00
CC(C)n1cc(C(=O)Nc2ccc(-c3cc(C4CCC(N(C)C)CC4)n4ncnc(N)c34)cc2)c(=O)n(-c2ccccc2)c1=O (centres unmarked)	≥ 8.30
COCCOc1ccc(-c2n[nH]c3ncc(-c4ccc5c(c4)CC[C@@H](N4C6COCC4C6)CC5)cc23)cc1	6.00 to 7.00
O=C([C@H]1CCCN1)N1CCc2ccc(-c3cnc4[nH]nc(-c5ccc(S(=O)(=O)C6CC6)cc5)c4c3)cc2CC1	6.00 to 7.00
COC[C@H](C)Nc1ncc2c(-c3cnn(C(C)(C)C(=O)N4CCO[C@@H](C(C)(C)O)C4)c3)cc([C@H]3CC[C@H](O)CC3)n2n1	≥ 7.00
CC(=O)Nc1ccc(C(=O)Nc2sc(Nc3ccccc3)nc2C(N)=O)cc1	< 6.52
CC(CC(F)F)Nc1ncc2c(-c3ccc(CN4CCN(C)CC4)cc3)cc(C3CCC(O)CC3)n2n1 (centres unmarked)	≥ 7.00
CC[C@H](C)Nc1ncc2c(-c3ccc(CN4CCN(C)CC4)cc3)cc([C@H]3CC[C@H](O)CC3)n2n1	≥ 7.00

// Input: COC[C@H](C)Nc1ncc2c(-c3ccc(C#N)c(F)c3)cc([C@H]3CC[C@H](O)CC3)n2n1 . Output its pIC50 only.
≥ 7.00

// Input: COC[C@H](C)Nc1ncc2c(-c3cnn(C[C@@H]4CCC(=O)N4)c3)cc([C@H]3CC[C@H](O)CC3)n2n1 . Output its pIC50 only.
≥ 7.00

// Input: COC[C@H](C)N(C)c1ncc2c(-c3ccnc(C)c3)cc([C@H]3CC[C@H](OC)CC3)n2n1 . Output its pIC50 only.
5.00 to 6.00

// Input: COC[C@H](C)Nc1ncc2c(-c3cnn(CCS(C)(=O)=O)c3)cc([C@H]3CC[C@H](O)CC3)n2n1 . Output its pIC50 only.
≥ 7.00

====

Literature roundup of TYRO3 (Homo sapiens) data, read-out IC50.

// worked examples, IC50 included
C[C@@H](CC(F)F)Nc1ncc2c(-c3cnn(C4COC4)c3)cc([C@H]3CC[C@H](O)CC3)n2n1	≤ 100 nM
CC(C)C(=O)N1CCC(c2cc(-c3ccc(NC(=O)c4cnc(-c5cccnc5)n(-c5ccccc5)c4=O)cc3)c3c(N)ncnn23)CC1	10 to 100 nM
C[C@@H](COC(F)F)Nc1ncc2c(-c3ccnc(N4CCOCC4)c3)cc([C@H]3CC[C@H](O)CC3)n2n1	≤ 100 nM
CCC1(N2CCC[C@H]2C)CCc2ccc(-c3cnc4[nH]nc(-c5ccc(S(=O)(=O)C6CC6)cc5)c4c3)cc2CC1 (stereo partly shown)	100 to 1000 nM
CO[C@H]1C[C@@H](Oc2ncc([C@H]3CC[C@H](O)CC3)c3nc(N[C@@H](C)CC(F)(F)F)ncc23)C1	≤ 100 nM

Report measured IC50 on TYRO3 (Homo sapiens); entry: COC[C@H](C)Nc1ncc2c(OC3CCOCC3)ncc(-c3cnn([C@@H]4CCN(C)C4)c3)c2n1
100 to 1000 nM

Report measured IC50 on TYRO3 (Homo sapiens); entry: COc1cc2nccc(Oc3ccc(NC(=O)c4cc(CC5CCOCC5)cn(-c5ccc(C)cc5)c4=O)nc3)c2cc1OC
48 nM

====

Literature roundup of TYRO3 (Homo sapiens, UniProt Q06418) data, read-out IC50.

// worked examples, IC50 included
CCCCNc1ncc2c(n1)N([C@H]1CC[C@H](N)CC1)Cc1cc(CNC3CCOCC3)ccc1-2	< 100 nM
CC[C@H](C)Nc1ncc2c(OCC34CCC(O)(CC3)CC4)ncc([C@H]3CC[C@H](O)CC3)c2n1	100 to 1000 nM

// Input: C[C@@H](COC(F)F)Nc1ncc2c(O[C@H]3C[C@@H](O)C3)ncc([C@H]3CC[C@H](O)CC3)c2n1 . Output its IC50 only.
≤ 100 nM

// Input: COC[C@H](C)Nc1ncc2c(-c3ccc(CN4CCOCC4)cc3)cc([C@H]3CC[C@@H](O)CC3)n2n1 . Output its IC50 only.
≤ 100 nM

// Input: C[C@@H](CF)Nc1ncc2c(OC3CCOCC3)ncc([C@H]3CC[C@H](O)CC3)c2n1 . Output its IC50 only.
100 to 1000 nM

// Input: O=C(c1ccc(-c2n[nH]c3ncc(-c4ccc5c(c4)CC[C@@H](N4CCCC4)CC5)cc23)cc1Cl)N1CCC(O)CC1 . Output its IC50 only.
< 100 nM

// Input: COC[C@H](C)Nc1ncc2c(-c3cnn(C(C)(C)C(=O)N4CCOCC4)c3)cc([C@H]3CC[C@@](C)(O)CC3)n2n1 . Output its IC50 only.
≤ 100 nM

====

Literature roundup of TYRO3 (Homo sapiens) data, read-out IC50.

// worked examples, IC50 included
COC[C@H](C)Nc1ncc2c(-c3ccnc(NC(C)C)c3)cc([C@H]3CC[C@H](O)CC3)n2n1	≤ 100 nM
CC[C@H](C)Nc1ncc2c(=O)n(CC34CCC(N(C)C)(CC3)CC4)cc([C@H]3CC[C@H](O)CC3)c2n1	≤ 100 nM
CNOc1cc(-c2cc([C@H]3CC[C@H](O)CC3)n3nc(N[C@@H](C)COC)ncc23)ccn1	≤ 100 nM
COc1cc2nccc(Oc3ccc(NC(=O)c4cn(C(C)C)cc(-c5ccc(C)cc5)c4=O)nc3)c2cc1OC	29 nM
Cc1c(-c2ccnn2C)cc(C(=O)Nc2ccc(-c3cc(C4CCN(C(=O)C(C)C)CC4)n4ncnc(N)c34)cc2)c(=O)n1-c1cccnc1	> 100 nM
COC[C@H](C)Nc1ncc2c(-c3ccc(CN4CCN(C)CC4)cc3)cc([C@H]3CC[C@@H](O)CC3)n2n1	≤ 100 nM

Could you now consider this next compound?
// Input: C[C@@H](CC(F)(F)F)Nc1ncc2c(-c3ccnc([S@@](C)(=N)=O)c3)cc([C@H]3CC[C@H](O)CC3)n2n1 . Output its IC50 only.
≤ 100 nM
